System: ZEAMA Abraxas
assay_method_text: Tank-mix; post-emergence, crop damage with and without safener
Assay type: in vivo, maize
conditions_used: HER 2 g a.i./ha, cyprosulfamide 50 g a.i./ha
Hi there, I'd appreciate the recorded Reduction [%] for every entry that follows.
Numbers only, in %.

{"compound": "COC(=O)C1C=CC(NC(=O)C2(C)CC(c3cc(F)cc(F)c3)=NO2)C1 (stereo not shown)", "measurement_target": "ZEAMA Abraxas", "unit": "%", "Reduction [%]": 80}
{"compound": "CCCSCCOC(=O)C1C=CC(NC(=O)C2(C)CC(c3cc(F)cc(F)c3)=NO2)C1 (stereo not shown)", "measurement_target": "ZEAMA Abraxas", "unit": "%", "Reduction [%]": 50}

Hello, I would appreciate it if you could give Reduction [%] for each entry below.
1. C=CC1(C(=O)NC2C=C(C(=O)OC)OC2)CC(c2cc(C)cc(C)c2)=NO1 (stereo not shown)
2. CC1(C(=O)NC2C=CC(C(=O)OCCSC(F)(F)F)C2)CC(c2cc(F)cc(F)c2)=NO1 (stereo not shown)

[reply]
1. 88
2. 42

---

System: ZEAMA Sileno
assay_method_text: Seed treatment with safener; post-emergence herbicide application
Assay type: in vivo, maize
conditions_used: HER dose 32 g a.i./ha, Cyprosulfamide seed treatment 0.5 g a.i./kg seed, Final assessment
Hi there, I'd appreciate the recorded HER effect + SAF (crop damage with safener) for every entry that follows.
Numbers only, in %.

Reference set, count: 3
{"molecule": "C=CC1(C(=O)NC2CC=C(C(=O)OC)C2)CC(c2cc(F)cc(F)c2)=NO1 (mixture of isomers) [Example 1.60]", "numeric_readout": 8}
{"molecule": "C=CC1(C(=O)NC2COC(C(=O)OC)C2)CC(c2cc(F)cc(F)c2)=NO1 (mixture of isomers) [Example 1.68]", "numeric_readout": 30}
{"molecule": "COCCOC(=O)C1C=CC(NC(=O)C2(C)CC(c3cc(Cl)cc(C#N)c3)=NO2)C1 (stereo not shown) [Example 1.5]", "numeric_readout": 20}

Hello, I would appreciate it if you could give HER effect + SAF (crop damage with safener) for each entry below.
1. CCOC(=O)C1=CCC(NC(=O)C2(C)CC(c3cccc(F)c3)=NO2)C1 (mixture of isomers) [Example 1.59]
2. COCCOC(=O)C1C=CC(NC(=O)C2(CCl)CC(c3cc(F)cc(F)c3)=NO2)C1 (stereo not shown) [Example 1.1]
3. CCOC(=O)C1C=CC(NC(=O)C2(CF)CC(c3cc(F)cc(F)c3)=NO2)C1 (stereo not shown) [Example 1.17]
4. COC(=O)C1C=CC(NC(=O)C2(C)CC(c3cc(F)cc(Cl)c3)=NO2)C1 (stereo not shown) [Example 1.21]
5. C=CC1(C(=O)NC2COC(C(=O)OCCCl)C2)CC(c2cc(F)cc(F)c2)=NO1 (mixture of isomers) [Example 1.82]
6. COC(=O)C1=CC(NC(=O)C2(C)CC(c3cc(F)cc(F)c3)=NO2)CC1 (stereo not shown) [Example 1.63]
7. C=CC1(C(=O)NC2C=C(C(=O)OCCOC)OC2)CC(c2cc(C)cc(F)c2)=NO1 (stereo not shown) [Example 1.89]
8. C=CC1(C(=O)NC2C=CC(C(=O)OC)C2)CC(c2cc(F)cc(F)c2)=NO1 (stereo not shown) [Example 1.26]

[reply]
1. 10
2. 0
3. 15
4. 10
5. 15
6. 13
7. 3
8. 27

Hello, I would appreciate it if you could give HER effect + SAF (crop damage with safener) for each entry below.
1. C=CC1(C(=O)NC2COC(C(=O)OC)C2)CC(c2cc(F)cc(F)c2)=NO1 (stereo not shown) [Example 1.69]
2. C=CC1(C(=O)NC2C=CC(C(=O)O)C2)CC(c2cc(F)cc(F)c2)=NO1 (stereo not shown) [Example 1.58]
3. C=CC1(C(=O)NC2C=C(C(=O)OC)OC2)CC(c2cc(C)cc(C)c2)=NO1 (stereo not shown) [Example 1.90]
4. CCCSCCOC(=O)C1C=CC(NC(=O)C2(C)CC(c3cc(F)cc(F)c3)=NO2)C1 (stereo not shown) [Example 1.34]
5. CC1(C(=O)NC2C=CC(C(=O)O)C2)CC(c2cc(F)cc(F)c2)=NO1 (stereo not shown) [Example 1.36]

[reply]
[23, 25, 30, 10, 10]

meta.source: patent US20230240297A1
